# subjectOfTest: Bcl-2-like protein 10 (Homo sapiens) (UniProt Q9HD36)
# measurementProtocol: displacers of TR3 peptide from Bcl-B, primary screen, selectivity assay for Bfl-1 inhibitor project, biochemical, fluorescence polarization, FITC-TR3 peptide (AID 748);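 note: plate controls were wells without compound for no effect and wells lacking Bcl-B protein for full effect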
# settings: FP displacement of FITC-TR3 peptide from Bcl-B; at 20 µM; stronger effect = higher value
Screen size: about 96,000 compounds; about 100 (0.1%) were called active. The sample as a whole holds a higher share of actives than the screen did. Results with a measured potency or affinity are listed apart.
endpoint: displacement (%)
Report the value in % with no unit label.

Query string: So what's the measured displacement for this one? O=C(Nc1ccc2nn(-c3ccccc3)nc2c1)c1ccc2c(c1)OCO2
Result string: -30.3

Query string: So what's the measured displacement for this one? CCSc1nc(O)c(Cc2ccccc2)c(=O)[nH]1
Result string: 10.2

Query string: So what's the measured displacement for this one? O=C1CN(C(=O)c2cnccn2)c2ccccc2N1
Result string: 7

Query string: So what's the measured displacement for this one? CCc1ccc(-n2nc3ccc(NC(=O)c4ccc5c(c4)OCO5)cc3n2)cc1
Result string: -1

Query string: So what's the measured displacement for this one? Oc1ccc(C2=Nn3c(nnc3-c3ccco3)SC2)cc1O
Result string: 56.6

Query string: So what's the measured displacement for this one? COc1cc(C(=O)NCCC(=O)NCCCN2CCCCC2C)cc(OC)c1OC (configuration not stated)
Result string: -7

Query string: So what's the measured displacement for this one? CCOC(=O)c1nn(-c2ccccc2)c(=O)c2c(N)scc12
Result string: -1.6

Query string: So what's the measured displacement for this one? O=C(c1cccnc1)N1CCc2ccccc21
Result string: -1.9

Query string: So what's the measured displacement for this one? CCN(CCO)c1ccc(-n2c(N)c(C(=O)OC)c3nc4ccccc4nc32)cc1
Result string: 12.6

Query string: So what's the measured displacement for this one? CS(=O)(=O)N(CCc1ccccc1)CC(=O)N1CCCCC1
Result string: 0.5

Query string: So what's the measured displacement for this one? CC(C)(C)C(=O)Nc1nc(C2CCCN2S(=O)(=O)c2ccc(Cl)cc2)cs1 (configuration not stated)
Result string: -7.5

Query string: So what's the measured displacement for this one? Nc1csnc1C(=O)O
Result string: 1.9

----------
# subjectOfTest: Bcl-2-like protein 10 (Homo sapiens) (UniProt Q9HD36)
# measurementProtocol: displacers of TR3 peptide from Bcl-B, primary screen, selectivity assay for Bfl-1 inhibitor project, biochemical, fluorescence polarization, FITC-TR3 peptide (AID 748);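 note: plate controls were wells without compound for no effect and wells lacking Bcl-B protein for full effect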
# settings: FP displacement of FITC-TR3 peptide from Bcl-B; at 20 µM; stronger effect = higher value
Among all 96,000 compounds or so, about 100 (0.1%) were called active. Shown is part of a subset that was picked to be rich in actives. Entries with a potency or affinity are not part of this list.
Assignment: determine reported displacement for the given molecules.
Report the value in % with no unit label.

Query string: // fetch Bcl-2-like protein 10 (Homo sapiens) (UniProt Q9HD36) displacement for O=C(O)c1cc2c([nH]c1=O)CCCC2
Result string: -1

Query string: // fetch Bcl-2-like protein 10 (Homo sapiens) (UniProt Q9HD36) displacement for COc1ccc(OC)c(C2=NO[C@@H]3C(=O)N(c4cc(Cl)ccc4OC)C(=O)[C@H]23)c1
Result string: 6

Query string: // fetch Bcl-2-like protein 10 (Homo sapiens) (UniProt Q9HD36) displacement for C=CCn1c(C)cc(C(=O)CSc2nnc(NC(C)C)s2)c1C
Result string: -5.7

Query string: // fetch Bcl-2-like protein 10 (Homo sapiens) (UniProt Q9HD36) displacement for COc1ccc(C)cc1NS(=O)(=O)c1cn(C)c(=O)n(C)c1=O
Result string: -4.4

Query string: // fetch Bcl-2-like protein 10 (Homo sapiens) (UniProt Q9HD36) displacement for O=C(Cc1ccc(Cl)cc1)Nc1ccc(N2CCCC2)cc1
Result string: -84

Query string: // fetch Bcl-2-like protein 10 (Homo sapiens) (UniProt Q9HD36) displacement for COC(=O)CSc1nnc(CNS(=O)(=O)c2ccc(Cl)cc2)n1C
Result string: 8.2

Query string: // fetch Bcl-2-like protein 10 (Homo sapiens) (UniProt Q9HD36) displacement for O=C(Nc1ccc(N2CCCC2)cc1)C(Cl)c1ccccc1 (configuration not stated)
Result string: -13.8

Query string: // fetch Bcl-2-like protein 10 (Homo sapiens) (UniProt Q9HD36) displacement for ON=Cc1cccn1-c1ccccc1
Result string: 3.4

Query string: // fetch Bcl-2-like protein 10 (Homo sapiens) (UniProt Q9HD36) displacement for C/C(N)=C(/C#N)C(=O)COC(=O)CSc1ccc2ccccc2c1
Result string: -15.4

Query string: // fetch Bcl-2-like protein 10 (Homo sapiens) (UniProt Q9HD36) displacement for O=S(=O)(c1ccccc1)N1CCSC1c1ccco1 (configuration not stated)
Result string: -4.6

Query string: // fetch Bcl-2-like protein 10 (Homo sapiens) (UniProt Q9HD36) displacement for CCCn1c(=O)c2c(c3ccccc31)OC(C)C(=O)N2 (configuration not stated)
Result string: 4.5

Query string: // fetch Bcl-2-like protein 10 (Homo sapiens) (UniProt Q9HD36) displacement for O=C(Nc1ccc(N2CCCCC2)cc1)c1ccccc1
Result string: -3.3
